SYSTEM NAME: T1, Recombinant human CD4 (R&D Systems, Cat. 10327-CD) (human, UniProt P01730 26-390, limits assumed)
T1 construct: Bought protein; also called huCD4
TEST: BLI (Octet Red 384), non-clonal supernatant captured on AMC sensors, 100 nM human CD4, 1:1 local fit;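 note: hybridoma antibodies from supernatants, one CD4 concentration giving single-point kinetics per supernatant, with curves fitted over both association and dissociation phases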
Known koff of a selection of binders
MEASURED PROPERTY: koff

[[record]]
binder = "75110_04P06A (antibody, V domains shown, Tested as non-clonal AlivaMab Mouse hybridoma supernatant (human variable regions and human kappa, mouse Fc); also called ADS75110 non-clonal supernatant 04P06A) VH: EVQLVESGGGLVQPGGSLRLSCAASGFTFSNYDMHWVRQATGKGLEWVSTIGTAGDTYYPGSVKGRFTISRENAKNSLYLQMNSLRAGDTAVYYCARGGDYYYGMDVWGQGTTVTVSS VL: EIVLTQSPDTLSLSPGERATLSCRASQSLSSVYLAWYQQKPGQAPRLLIYGASSRATGIPDRFSGSGSGTDFTLTINRLEPEDFVVYYCQQYGSSPFTFGPGTKVDIK"
value_measured = "< 1e-07 s⁻¹"

[[record]]
binder = "75110_01J17A (antibody, V domains shown, Tested as non-clonal AlivaMab Mouse hybridoma supernatant (human variable regions and human kappa, mouse Fc); also called ADS75110 non-clonal supernatant 01J17A) VH: EVQLVESGGGLVQPGGSLRLSCAASGFTFSSYDMHWVRQGTGKGLEWVSTIGTADDTYYPGSVKGRFTISRENAENSLYLQMNSLRAGDTAVYYCARGGDYYYGMDVWGQGTTVTVSS VL: EIVLAQSPGTLSLSPGERATLSCRASQSVYISYLAWYQQKPGQAPRLLIYGASSRATGIPDRFSGSGSGTDFTLTITRLEPEDFAVYYCQQFGSSPFTFGPGTKVDFK"
value_measured = "< 1e-07 s⁻¹"

[[record]]
binder = "75110_02I16A (antibody, V domains shown, Tested as non-clonal AlivaMab Mouse hybridoma supernatant (human variable regions and human kappa, mouse Fc); also called ADS75110 non-clonal supernatant 02I16A) VH: QVQLQQWGAGLLKPSETLSLTCDVYGGSFSGYYWTWIRQPPGKGLEWIGEINHSGTTNSNPSLKSRVTISVDTSKSQFSLRLSSVTAADTAVYFCTRELNWFDPWGQGTLVTVSS VL: DIQMTQSPSSVSASVGDRVTITCRASQDIANWLAWYQQKPGKAPQLLIYAASSLLGGVPSRFSGSGSGADFTLTISSLHPEDFATYYCQQANSFPYTFGQGTKLEIK"
value_measured = "0.0012 s⁻¹"

[[record]]
binder = "75110_05K11A (antibody, V domains shown, Tested as non-clonal AlivaMab Mouse hybridoma supernatant (human variable regions and human kappa, mouse Fc); also called ADS75110 non-clonal supernatant 05K11A) VH: EVQLVESGGGLVQPGGSLRLSCAASGFTFSSYDMHWVRQPTGKGLEWVSTIGTAGDTYYPASVKGRFTISRENAKNSLYLQMNSLRAGDTAVYYCARGGFYYYGMDVWGQGTTVTVSS VL: EIVLTQSPGTLSLSPGERVTLSCRASQSVSNTYLAWYQQKPGQAPRLLIYGASSRATGIPDRFSGSGSGTDFTLTISRLEPEDFVVYYCQQHGSSPFTFGPGTKVDIK"
value_measured = "< 1e-07 s⁻¹"

[[record]]
binder = "75110_04G16A (antibody, V domains shown, Tested as non-clonal AlivaMab Mouse hybridoma supernatant (chimeric: human variable regions and human kappa, mouse Fc, captured by anti-mouse IgG Fc sensors); also called ADS75110 non-clonal supernatant 04G16A) VH: QVQLQESGPGLVKPSQTLSLTCTVSGDSISSGYYYWSWIRQHPGKGLEWIGYISYSGSTYYNPSLKSRLTISVNTSKNQFSLKLSSLTAADTAVYYCARDRPSNFDAFDIWGQGTMVTVSS VL: EIVLTQSPGTLSLSPGERATLSCRASQSVGSTYLAWYQQKPGQAPRLLIYGAFSRATGIPDRFSGSGSGTDFTLTISRLEPEDFAVYYCQQYGSSPLTFGPGTKVDIK"
value_measured = "7.1e-05 s⁻¹"

